Entry source: PubChem BioAssay (NCI)

Test system: SK-MEL-28 melanoma
protocol-text: NCI tumour cell line growth inhibition, 48 h; in the data active means GI50 below about 0.43 µM; inactive means the rest
// one of 1 = active, -1 = inactive, no free text

IN: Test call for this molecule, please: CCN(Cc1ccc(OC)cc1)c1ccc(CO)c(Cl)c1
OUT: -1

IN: Which outcome was assigned to Sc1cccc2cccnc12 in this test?
OUT: -1

IN: What classification did COc1cc2c(c3oc(-c4ccc(O)cc4)c(O)c(=O)c13)CCC(C)(C)O2 end up with in this test?
OUT: 1

IN: Field: outcome | Entry: O=c1[nH]c2ccccc2n1C1CCNCC1
OUT: -1

IN: Per the assay record, what outcome was assigned to O=C(NCc1cn(Cc2cccc(Oc3ccccc3)c2)nn1)c1cccnc1Nc1ccc(F)cc1 ?
OUT: -1

IN: State the result this test recorded for Cn1cc(C2=C(c3ccsc3)C(=O)NC2=O)c2ccccc21 .
OUT: -1

====

Tested on: NCI-H23 lung
protocol-text: NCI tumour cell line growth inhibition, 48 h
metric: TGI

IN: Which TGI is reported for this compound? C#CCOC(=O)C(N)CC(N)=O (stereo unspecified)
OUT: > 100 µM

IN: Which TGI is listed for O=S(=O)(NCCCNc1cc(-c2cn(-c3ccccc3)nc2-c2cccc(O)c2)ccn1)c1ccc(C(F)(F)F)cc1 ?
OUT: 3.94 µM

IN: What does the record list as TGI for Cc1cn2cc(-c3cccs3)nc2s1 ?
OUT: > 100 µM

IN: Given the entry O=C1C(Cl)C(c2cccc([N+](=O)[O-])c2)N1n1cnc2ccccc2c1=O (stereo unspecified) , report its measured TGI.
OUT: > 100 µM

IN: Given the compound COc1ccc2c(c1)/C(=C/c1c(O)[nH]c(=S)[nH]c1=O)C=N2 , what is its reported TGI?
OUT: > 100 µM

IN: Look up TGI: Cn1cc(C2=C(c3ccsc3)C(=O)NC2=O)c2ccccc21
OUT: > 25 µM

IN: Give the measured TGI of CCNC1=C(NC(=O)c2ccc(F)cc2)C(=O)c2ccccc2C1=O .
OUT: > 100 µM

IN: Find the recorded TGI belonging to CC(NCc1c(O)ccc2c(-c3ccccc3)cc(=O)oc12)C(=O)O (stereo unspecified) and report it.
OUT: > 100 µM

IN: Need TGI, item COC(=O)C(=O)C(C(=O)C(=O)Nc1ccc(Cl)c(Cl)c1)c1nc2ccc(C(=O)c3ccccc3)cc2[nH]c1=O (stereo unspecified)
OUT: > 100 µM

IN: Look up TGI for this compound: CC1(OCc2ccccc2)C(=O)N2C1NCC2(C)C (stereo unspecified)
OUT: > 100 µM

IN: // returns reported TGI for input O=C1C=C(Nc2ccccc2)c2ccccc2C1=O
OUT: 4.91 µM

====

Test system: NCI-H522 lung
protocol-text: NCI tumour cell line growth inhibition, 48 h
# label = fulfilled if TGI >= 8 µM else not fulfilled

IN: State whether the measured TGI reaches 8 µM, counting equality as reaching it, for N/N=c1/nc2n(c3ncccc13)C=CNN2
OUT: fulfilled

IN: Is TGI at least 8 µM? Consider Cc1ccc(S(=O)(=O)NNC(=O)Nc2cccc(C(F)(F)F)c2)cc1
OUT: fulfilled

IN: Does the compound COc1cc2cc(NCc3cccc(Cl)c3)nc(C)c2cc1OC have recorded TGI that is 8 µM or more?
OUT: fulfilled

IN: Does Nc1c(C(=O)Nc2cccc(Cl)c2)sc2nc3c(cc12)C(=O)CCC3 have a reported TGI of at least 8 µM?
OUT: not fulfilled

IN: Does TGI meet or surpass 8 µM for COc1cc2c(c3oc(-c4ccc(O)cc4)c(O)c(=O)c13)CCC(C)(C)O2 ?
OUT: not fulfilled

IN: Kindly determine if TGI recorded for N=c1sc2ccccc2n1CCS (tested in a mixture with another compound) is above or exactly 8 µM.
OUT: fulfilled

IN: Form field: TGI at least 8 µM? Entry: CN(C)CC1CC/C(=C\c2ccc(Cl)c(Cl)c2)C1=O (stereo not given)
OUT: fulfilled

IN: Is reported TGI greater than or equal to 8 µM here: CN1CCN(Cc2ccc(NC(=O)c3cncc(C#Cc4cnc(N)c5ncccc45)c3)cc2C(F)(F)F)CC1
OUT: fulfilled

IN: Could you verify whether the entry CC(=O)C1(O)CC2(c3ccccc3)C(=O)C1(c1ccccc1)C(c1ccccc1)=C2c1ccccc1 (stereo not given) shows TGI of no less than 8 µM?
OUT: fulfilled

IN: Dear colleague, could you confirm whether O=C1C(Cl)C(c2cccc([N+](=O)[O-])c2)N1n1cnc2ccccc2c1=O (stereo not given) has TGI at or above 8 µM?
OUT: fulfilled
